target: tissue transglutaminase (TG2), C-terminal His-tag TG2 (Homo sapiens, UniProt P21980); construct: host or cells: Novagen Rosetta 2 (DE3) E. coli; assay: continuous AL5 hydrolysis assay of irreversible TG2 inhibition (kobs vs [I]/α); type: biochemical; settings: supplement, kinetics data and fitting
Sequence (P21980 whole entry): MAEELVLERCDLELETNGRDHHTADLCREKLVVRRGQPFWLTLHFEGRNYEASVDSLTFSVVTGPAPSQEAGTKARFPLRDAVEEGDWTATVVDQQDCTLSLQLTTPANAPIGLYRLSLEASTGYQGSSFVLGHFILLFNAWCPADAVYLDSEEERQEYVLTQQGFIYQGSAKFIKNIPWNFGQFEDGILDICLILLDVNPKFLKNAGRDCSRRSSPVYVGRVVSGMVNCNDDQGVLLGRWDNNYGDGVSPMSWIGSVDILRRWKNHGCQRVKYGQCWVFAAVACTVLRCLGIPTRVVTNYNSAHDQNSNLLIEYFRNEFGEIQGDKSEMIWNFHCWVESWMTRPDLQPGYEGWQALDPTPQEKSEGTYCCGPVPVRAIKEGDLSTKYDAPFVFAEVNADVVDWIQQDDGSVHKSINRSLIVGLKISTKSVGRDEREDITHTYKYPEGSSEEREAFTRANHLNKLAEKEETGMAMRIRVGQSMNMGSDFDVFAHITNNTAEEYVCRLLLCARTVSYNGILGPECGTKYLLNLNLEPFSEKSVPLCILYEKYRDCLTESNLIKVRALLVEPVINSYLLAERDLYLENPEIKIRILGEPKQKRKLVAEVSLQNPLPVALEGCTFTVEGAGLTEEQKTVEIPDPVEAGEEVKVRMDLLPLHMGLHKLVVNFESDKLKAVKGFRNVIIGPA
We use 9 µM as the dividing line for KI (inactivation): on or above the line is satisfied, below is not satisfied.

Previously resolved entries follow.
{"columns": ["COMPOUND", "QUALITATIVE_LABEL"],
 "data": [
  ["C=CC(=O)NCC(=O)N1CCN(C(=O)C23CC4CC(CC(Cl)(C4)C2)C3)CC1 [Compound 25b]", "not satisfied"],
  ["C=CC(=O)NCC(=O)N1CCN(C(=O)c2cccc(-c3ccc(C)cc3)c2)CC1 [Compound 21f]", "not satisfied"],
  ["C=CC(=O)NCC(=O)N1CCN(C(=O)C2CC2)CC1", "satisfied"]
]}

Reported KI (inactivation) reaches at least 9 µM for C=CC(=O)NCC(=O)N1CCN(C(=O)c2ccccc2-c2ccc(C)cc2)CC1 [Compound 21c] ?
not satisfied

Reported KI (inactivation) reaches at least 9 µM for C=CC(=O)NCC(=O)N1CCN(C(=O)c2ccccc2)CC1 ?
not satisfied

Reported KI (inactivation) reaches at least 9 µM for C=CC(=O)NCC(=O)N1CCN(C(=O)c2cccc(-c3ccccc3C)c2)CC1 [Compound 21d] ?
not satisfied

Reported KI (inactivation) reaches at least 9 µM for C=CC(=O)NCC(=O)N1CCN(C(=O)C2CCCCCC2)CC1 ?
satisfied

These entries and their values trace back to paper PMC12631574.
